Listed next: entries and their corresponding viability, T/C.
- Test system: 755483-174-R-J1-PDC complex spheroid growth, percent test/control;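 further: spheroids exposed to compounds for seven days before readout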
- method.notes: Anticancer human tumor 755483-174-R-J1-PDC patient-derived rhabdomyosarcoma cell line growth inhibition [Asc]
- conditions.used: second compound 0.1 µM; first compound 0.1 µM; hits give low values
readout.type: viability, T/C

compound="O=C(c1cc(Cc2n[nH]c(=O)c3ccccc23)ccc1F)N1CCN(C(=O)C2CC2)CC1 + CNC(C)C(=O)NC1CN(S(=O)(=O)c2cccc(S(=O)(=O)N3CCC4CCC(C(=O)NC(c5ccccc5)c5ccccc5)N4C(=O)C(NC(=O)C(C)NC)C3)c2)CCC2CCC(C(=O)NC(c3ccccc3)c3ccccc3)N2C1=O" result=40.2%
compound="CCN1CCN(Cc2ccc(Nc3ncc(F)c(-c4cc(F)c5nc(C)n(C(C)C)c5c4)n3)nc2)CC1 + Cc1c(S(C)(=O)=O)c(-c2cc(F)cc(N3CCN(c4ccc(NS(=O)(=O)c5ccc(NC(CCN6CCC(C(=O)OCCCP(=O)(O)O)CC6)CSc6ccccc6)c(S(=O)(=O)C(F)(F)F)c5)cc4)CC3)c2)c(-c2ccc(Cl)cc2)n1C(C)C" result=68.5%
compound="C#Cc1c(F)ccc2cc(O)cc(-c3ncc4c(N5CC6CCC(C5)N6)nc(OCC56CCCN5CC(F)C6)nc4c3F)c12 (stereo not drawn) + Cc1c(S(C)(=O)=O)c(-c2cc(F)cc(N3CCN(c4ccc(NS(=O)(=O)c5ccc(NC(CCN6CCC(C(=O)OCCCP(=O)(O)O)CC6)CSc6ccccc6)c(S(=O)(=O)C(F)(F)F)c5)cc4)CC3)c2)c(-c2ccc(Cl)cc2)n1C(C)C" result=65.8%
